Where these numbers come from: ChEMBL document CHEMBL5230162

Form field: pKd (one value per entry).
- assay overview: Binding affinity to human ASGPR assessed as equilibrium dissociation constant by surface plasmon resonance spectroscopy
pKd: −log10 of the molar value.

compound	pKd
CC(=O)N[C@H]1[C@H](OCCn2cc(COC(=O)C[C@H](O)C[C@H](O)CCn3c(-c4ccc(F)cc4)c(-c4ccccc4)c(C(=O)Nc4ccccc4)c3C(C)C)nn2)O[C@H](CO)[C@H](O)[C@@H]1O	7.10
CC(=O)N[C@H]1[C@H](OCCn2cc(COC(=O)C[C@H]3C[C@@H](CCn4c(-c5ccc(F)cc5)c(-c5ccccc5)c(C(=O)Nc5ccccc5)c4C(C)C)OC(C)(C)O3)nn2)O[C@H](CO)[C@H](O)[C@@H]1O	9.48
CC(=O)N[C@@H]1[C@@H](O)[C@@H](O)[C@@H](CO)O[C@H]1n1cc(CNC(=O)C[C@H](O)C[C@H](O)CCn2c(-c3ccc(F)cc3)c(-c3ccccc3)c(C(=O)Nc3ccccc3)c2C(C)C)nn1	6.95
CC(=O)N[C@H]1[C@H](OCCNC(=O)C[C@H](O)C[C@H](O)CCn2c(-c3ccc(F)cc3)c(-c3ccccc3)c(C(=O)Nc3ccccc3)c2C(C)C)O[C@H](CO)[C@H](O)[C@@H]1O	7.16
CC(=O)N[C@H]1[C@H](OCCn2cc(CNC(=O)C[C@H](O)C[C@H](O)CCn3c(-c4ccc(F)cc4)c(-c4ccccc4)c(C(=O)Nc4ccccc4)c3C(C)C)nn2)O[C@H](CO)[C@H](O)[C@@H]1O	6.79

###

- system name: UniProtKB P04035
- Sequence (P04035 whole entry): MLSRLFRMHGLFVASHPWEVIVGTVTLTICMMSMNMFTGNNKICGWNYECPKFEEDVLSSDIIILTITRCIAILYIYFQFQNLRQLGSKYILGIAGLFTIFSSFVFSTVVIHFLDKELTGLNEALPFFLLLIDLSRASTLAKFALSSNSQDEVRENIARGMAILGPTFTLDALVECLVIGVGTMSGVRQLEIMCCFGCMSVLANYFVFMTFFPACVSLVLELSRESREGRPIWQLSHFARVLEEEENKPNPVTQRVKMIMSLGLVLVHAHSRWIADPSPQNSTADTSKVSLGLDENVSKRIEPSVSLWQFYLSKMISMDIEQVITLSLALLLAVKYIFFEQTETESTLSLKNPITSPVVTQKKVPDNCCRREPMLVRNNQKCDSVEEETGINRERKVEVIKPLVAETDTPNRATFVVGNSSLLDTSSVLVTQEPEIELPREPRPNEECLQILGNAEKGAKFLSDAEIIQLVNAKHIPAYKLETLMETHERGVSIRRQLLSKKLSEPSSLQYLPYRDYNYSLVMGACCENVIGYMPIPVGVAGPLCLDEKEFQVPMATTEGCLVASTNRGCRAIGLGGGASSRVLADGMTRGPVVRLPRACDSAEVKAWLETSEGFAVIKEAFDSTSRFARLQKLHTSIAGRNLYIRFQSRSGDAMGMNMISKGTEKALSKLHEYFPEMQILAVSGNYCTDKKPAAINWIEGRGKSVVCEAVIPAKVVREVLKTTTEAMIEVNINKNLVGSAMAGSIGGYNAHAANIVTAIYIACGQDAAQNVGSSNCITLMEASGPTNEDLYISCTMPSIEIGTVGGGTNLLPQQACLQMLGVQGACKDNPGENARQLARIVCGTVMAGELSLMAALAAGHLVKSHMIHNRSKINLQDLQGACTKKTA
- assay overview: Inhibition of HMG-CoA reductase (unknown origin) in neutral aqueous media
The source made the active and inactive calls. No cut-off for these calls is given here.

compound	inhibition (active/not active)
CC(=O)N[C@H]1[C@H](OCCn2cc(CNC(=O)C[C@H](O)C[C@H](O)CCn3c(-c4ccc(F)cc4)c(-c4ccccc4)c(C(=O)Nc4ccccc4)c3C(C)C)nn2)O[C@H](CO)[C@H](O)[C@@H]1O	inactive
CC(=O)N[C@@H]1[C@@H](O)[C@@H](O)[C@@H](CO)O[C@H]1n1cc(COC(=O)C[C@H](O)C[C@H](O)CCn2c(-c3ccc(F)cc3)c(-c3ccccc3)c(C(=O)Nc3ccccc3)c2C(C)C)nn1	Active
CC(=O)N[C@@H]1[C@@H](O)[C@@H](O)[C@@H](CO)O[C@H]1n1cc(CNC(=O)C[C@H](O)C[C@H](O)CCn2c(-c3ccc(F)cc3)c(-c3ccccc3)c(C(=O)Nc3ccccc3)c2C(C)C)nn1	inactive
CC(=O)N[C@H]1[C@H](OCCn2cc(COC(=O)C[C@H]3C[C@@H](CCn4c(-c5ccc(F)cc5)c(-c5ccccc5)c(C(=O)Nc5ccccc5)c4C(C)C)OC(C)(C)O3)nn2)O[C@H](CO)[C@H](O)[C@@H]1O	Active

###

Form field: fold change (FC) (one value per entry).
- assay overview: Solubility of the compound in water incubated for 15 mins under shaking conditions by UV spectrophotometry relative to atorvastatin
- Type: physicochemical
- condition details: buffer, 0.25 h

compound	fold change (FC)
CC(=O)N[C@H]1[C@H](OCCn2cc(CNC(=O)C[C@H](O)C[C@H](O)CCn3c(-c4ccc(F)cc4)c(-c4ccccc4)c(C(=O)Nc4ccccc4)c3C(C)C)nn2)O[C@H](CO)[C@H](O)[C@@H]1O	5
CC(=O)N[C@@H]1[C@@H](O)[C@@H](O)[C@@H](CO)O[C@H]1n1cc(CNC(=O)C[C@H](O)C[C@H](O)CCn2c(-c3ccc(F)cc3)c(-c3ccccc3)c(C(=O)Nc3ccccc3)c2C(C)C)nn1	4
CC(=O)N[C@H]1[C@H](OCCNC(=O)C[C@H](O)C[C@H](O)CCn2c(-c3ccc(F)cc3)c(-c3ccccc3)c(C(=O)Nc3ccccc3)c2C(C)C)O[C@H](CO)[C@H](O)[C@@H]1O	4

###

- assay overview: Binding affinity to human ASGPR assessed as equilibrium dissociation constant by surface plasmon resonance spectroscopy
pKd: −log10 of the molar value.
Form field: pKd (one value per entry).
reported endpoint: pKd

compound	observed result
CC(=O)N[C@@H]1[C@@H](O)[C@@H](O)[C@@H](CO)O[C@@H]1O	5.35
CC(=O)N[C@@H]1[C@@H](O)[C@@H](O)[C@@H](CO)O[C@H]1n1cc(COC(=O)C[C@H]2C[C@@H](CCn3c(-c4ccc(F)cc4)c(-c4ccccc4)c(C(=O)Nc4ccccc4)c3C(C)C)OC(C)(C)O2)nn1	9.82
CC(=O)N[C@@H]1[C@@H](O)[C@@H](O)[C@@H](CO)O[C@H]1n1cc(COC(=O)C[C@H](O)C[C@H](O)CCn2c(-c3ccc(F)cc3)c(-c3ccccc3)c(C(=O)Nc3ccccc3)c2C(C)C)nn1	7.32
